Values compiled from ChEMBL document CHEMBL1148785.

Test system: Plasmodium falciparum
Procedure text: Inhibition of Plasmodium falciparum protein farnesyltransferase at 50 nM by scintillation proximity assay
Endpoint label: inhibition (%)
Please give a number only; it is taken to be in %.

Cc1c(S(=O)(=O)N(Cc2cc(Br)ccc2F)C2Cc3cc(C#N)ccc3N(Cc3cncn3C)C2)ncn1C (stereo not given): 98

Now take the following compound into account.
q: Tell me the measured inhibition of Cn1cncc1CN1CC(N(CCn2cccc2)S(=O)(=O)c2ccccn2)Cc2cc(C#N)ccc21 (stereo not given) , please.
a: 99

====

Tested on: Plasmodium falciparum
Procedure text: Inhibition of Plasmodium falciparum protein farnesyltransferase at 0.5 nM by scintillation proximity assay
Endpoint label: inhibition (%)
Please give a number only; it is taken to be in %.

CCN(CC)C(=O)c1ccc2c(c1)CC(N(CC(=O)NC(C)(C)C)S(=O)(=O)c1cn(C)cn1)CN2Cc1cncn1C (centres undefined): 0

q: Tell me the measured inhibition of CC(C)NC(=O)N1CCC(CN(C2Cc3cc(C#N)ccc3N(Cc3cncn3C)C2)S(=O)(=O)c2ccccn2)CC1 (centres undefined) , please.
a: 93

q: Tell me the measured inhibition of Cn1cncc1CN1CC(N(CC2CCN(S(=O)(=O)c3ccccc3)CC2)S(=O)(=O)c2ccccn2)Cc2cc(C#N)ccc21 (centres undefined) , please.
a: 67

q: Tell me the measured inhibition of Cn1cnc(S(=O)(=O)NC2Cc3cc(-c4ccccc4)ccc3N(Cc3cncn3C)C2)c1 (centres undefined) , please.
a: 14
